# studyTarget: Serotonin 3 (5-HT3) receptor (Rattus norvegicus, UniProt P35563+Q9JJ16)
# Sequence (P35563 whole entry): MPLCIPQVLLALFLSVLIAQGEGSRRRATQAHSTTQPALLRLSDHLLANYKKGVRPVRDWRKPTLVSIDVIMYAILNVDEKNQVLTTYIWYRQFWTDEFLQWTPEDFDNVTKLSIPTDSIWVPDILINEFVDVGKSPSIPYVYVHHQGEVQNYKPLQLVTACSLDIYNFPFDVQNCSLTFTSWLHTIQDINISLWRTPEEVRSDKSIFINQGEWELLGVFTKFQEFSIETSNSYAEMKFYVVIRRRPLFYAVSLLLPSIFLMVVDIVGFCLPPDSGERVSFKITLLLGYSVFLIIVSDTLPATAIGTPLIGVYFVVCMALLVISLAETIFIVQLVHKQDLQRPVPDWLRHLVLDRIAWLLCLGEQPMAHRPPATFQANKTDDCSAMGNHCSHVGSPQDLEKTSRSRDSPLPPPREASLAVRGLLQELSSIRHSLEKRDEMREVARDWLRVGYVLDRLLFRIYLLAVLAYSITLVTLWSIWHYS
# Sequence (Q9JJ16 whole entry): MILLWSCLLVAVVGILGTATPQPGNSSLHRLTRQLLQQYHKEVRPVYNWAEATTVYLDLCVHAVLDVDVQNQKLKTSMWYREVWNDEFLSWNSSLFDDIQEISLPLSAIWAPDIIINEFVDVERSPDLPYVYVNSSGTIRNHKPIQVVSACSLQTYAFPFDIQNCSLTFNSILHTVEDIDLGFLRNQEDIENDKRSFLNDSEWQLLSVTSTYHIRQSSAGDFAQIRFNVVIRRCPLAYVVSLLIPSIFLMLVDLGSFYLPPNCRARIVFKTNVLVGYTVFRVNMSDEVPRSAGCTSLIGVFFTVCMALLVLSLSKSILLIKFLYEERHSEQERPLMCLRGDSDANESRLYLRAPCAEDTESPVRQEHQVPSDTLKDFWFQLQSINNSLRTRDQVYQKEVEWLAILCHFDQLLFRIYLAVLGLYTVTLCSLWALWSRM
# assayComment: Displacement of [3H]-Q-ICS 205-930 from rat cortex homogenate 5-hydroxytryptamine 3 receptor
measuredAttribute: IC50

| smiles | studyTarget | IC50 |
| --- | --- | --- |
| CN(C)CCc1c[nH]c2ccc(CCc3nc(N)no3)cc12 | Serotonin 3 (5-HT3) receptor (Rattus norvegicus, UniProt P35563+Q9JJ16) | 6.31 µM |
| CN(C)CCc1c[nH]c2ccc(Cc3nc(N)no3)cc12 | Serotonin 3 (5-HT3) receptor (Rattus norvegicus, UniProt P35563+Q9JJ16) | 2.51 µM |
| Cc1noc(Cc2ccc3[nH]cc(CCN)c3c2)n1 | Serotonin 3 (5-HT3) receptor (Rattus norvegicus, UniProt P35563+Q9JJ16) | > 10 µM |
| CS(=O)(=O)Nc1ccc(Cc2noc(-c3ccc4[nH]cc(CCN)c4c3)n2)cc1 | Serotonin 3 (5-HT3) receptor (Rattus norvegicus, UniProt P35563+Q9JJ16) | > 10 µM |
| NCCc1c[nH]c2ccc(CCc3nc(Cc4ccccc4)no3)cc12 | Serotonin 3 (5-HT3) receptor (Rattus norvegicus, UniProt P35563+Q9JJ16) | > 10 µM |

# batch size: 2; output IC50 per entry
1. NCCc1c[nH]c2ccc(Cc3nc(N)no3)cc12
2. NCCc1c[nH]c2ccc(-c3nc(Cc4ccccc4)no3)cc12

1. > 10 µM
2. > 10 µM

# batch size: 6; output IC50 per entry
1. Cc1noc(-c2ccc3[nH]cc(CCN)c3c2)n1
2. COc1ccc(Cc2noc(-c3ccc4[nH]cc(CCN)c4c3)n2)cc1
3. CC(=O)Nc1ccc(Cc2noc(-c3ccc4[nH]cc(CCN)c4c3)n2)cc1
4. Cc1noc(Cc2ccc3[nH]cc(CCN(C)C)c3c2)n1
5. CN(C)CCc1c[nH]c2ccc(Cc3nc(N)ns3)cc12
6. NCCc1c[nH]c2ccc(-c3nc(C4CC4)no3)cc12

1: > 10 µM; 2: > 10 µM; 3: > 10 µM; 4: 3.98 µM; 5: 2.4 µM; 6: > 10 µM
